- Test protocol: Equilibrium solubility in simulated intestinal fluid, dual level DoE, fasted arm
- Type: physicochemical
- Particulars: fasted, current study (Figure 3)
Result type: statistical significance of DoE factor monoglyceride on equilibrium solubility

Query: Consider the compound CN1CC(=O)N2[C@H](c3ccc4c(c3)OCO4)c3[nH]c4ccccc4c3C[C@@H]2C1=O [tadalafil] . State its measured statistical significance of DoE factor monoglyceride on equilibrium solubility.
Result: NS ^e

Query: Consider the compound CCOC(=O)C1=C(C)NC(C)=C(C(=O)OC)C1c1cccc(Cl)c1Cl (centres unmarked) [felodipine] . State its measured statistical significance of DoE factor monoglyceride on equilibrium solubility.
Result: S ^d

Query: Consider the compound COc1ccc2c(c1)c(CC(=O)O)c(C)n2C(=O)c1ccc(Cl)cc1 [indomethacin] . State its measured statistical significance of DoE factor monoglyceride on equilibrium solubility.
Result: NS ^e

Query: Consider the compound C[C@@H](O[C@H]1OCCN(Cc2n[nH]c(=O)[nH]2)[C@H]1c1ccc(F)cc1)c1cc(C(F)(F)F)cc(C(F)(F)F)c1 [aprepitant] . State its measured statistical significance of DoE factor monoglyceride on equilibrium solubility.
Result: S ^d

Query: Consider the compound O=C1NC(=O)C(c2ccccc2)(c2ccccc2)N1 [phenytoin] . State its measured statistical significance of DoE factor monoglyceride on equilibrium solubility.
Result: NS ^e

New cases:
Query: Consider the compound COc1cc(C(=O)NS(=O)(=O)c2ccccc2C)ccc1Cc1cn(C)c2ccc(NC(=O)OC3CCCC3)cc12 [zafirlukast] . State its measured statistical significance of DoE factor monoglyceride on equilibrium solubility.
Result: S ^d

Query: Consider the compound COc1ccccc1OCCNCC(O)COc1cccc2[nH]c3ccccc3c12 (centres unmarked) [carvedilol] . State its measured statistical significance of DoE factor monoglyceride on equilibrium solubility.
Result: NS ^e

Query: Consider the compound CC(C)(Sc1cc(C(C)(C)C)c(O)c(C(C)(C)C)c1)Sc1cc(C(C)(C)C)c(O)c(C(C)(C)C)c1 [probucol] . State its measured statistical significance of DoE factor monoglyceride on equilibrium solubility.
Result: NS ^e
